Biological target: MEK3 (Homo sapiens (Human))
Sequence (P46734 whole entry): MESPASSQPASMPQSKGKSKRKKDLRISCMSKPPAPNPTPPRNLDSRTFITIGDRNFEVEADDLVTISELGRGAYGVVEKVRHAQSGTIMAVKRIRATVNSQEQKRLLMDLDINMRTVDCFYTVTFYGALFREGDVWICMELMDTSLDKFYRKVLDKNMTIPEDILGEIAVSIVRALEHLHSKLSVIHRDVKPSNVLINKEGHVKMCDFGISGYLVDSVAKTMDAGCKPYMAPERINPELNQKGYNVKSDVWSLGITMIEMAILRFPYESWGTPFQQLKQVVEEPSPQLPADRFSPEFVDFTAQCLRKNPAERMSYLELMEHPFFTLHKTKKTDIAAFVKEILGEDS
Assay: KINOMEscan competition binding assay (Kd)
Details: read-out: Kd Values Against MEK Kinases Isoforms: MEK3
pKd: −log10 of the molar value.
recorded-metric: pKd

molecule	endpoint-result
Nc1ncnc2c1c(-c1ccc(Oc3ccccc3)cc1)nn2C[C@H]1SSC[C@H]1O	5.00 to 6.00

====

Target: KDR/VEGFR2 (Homo sapiens (Human))
Sequence (P35968 20-1356): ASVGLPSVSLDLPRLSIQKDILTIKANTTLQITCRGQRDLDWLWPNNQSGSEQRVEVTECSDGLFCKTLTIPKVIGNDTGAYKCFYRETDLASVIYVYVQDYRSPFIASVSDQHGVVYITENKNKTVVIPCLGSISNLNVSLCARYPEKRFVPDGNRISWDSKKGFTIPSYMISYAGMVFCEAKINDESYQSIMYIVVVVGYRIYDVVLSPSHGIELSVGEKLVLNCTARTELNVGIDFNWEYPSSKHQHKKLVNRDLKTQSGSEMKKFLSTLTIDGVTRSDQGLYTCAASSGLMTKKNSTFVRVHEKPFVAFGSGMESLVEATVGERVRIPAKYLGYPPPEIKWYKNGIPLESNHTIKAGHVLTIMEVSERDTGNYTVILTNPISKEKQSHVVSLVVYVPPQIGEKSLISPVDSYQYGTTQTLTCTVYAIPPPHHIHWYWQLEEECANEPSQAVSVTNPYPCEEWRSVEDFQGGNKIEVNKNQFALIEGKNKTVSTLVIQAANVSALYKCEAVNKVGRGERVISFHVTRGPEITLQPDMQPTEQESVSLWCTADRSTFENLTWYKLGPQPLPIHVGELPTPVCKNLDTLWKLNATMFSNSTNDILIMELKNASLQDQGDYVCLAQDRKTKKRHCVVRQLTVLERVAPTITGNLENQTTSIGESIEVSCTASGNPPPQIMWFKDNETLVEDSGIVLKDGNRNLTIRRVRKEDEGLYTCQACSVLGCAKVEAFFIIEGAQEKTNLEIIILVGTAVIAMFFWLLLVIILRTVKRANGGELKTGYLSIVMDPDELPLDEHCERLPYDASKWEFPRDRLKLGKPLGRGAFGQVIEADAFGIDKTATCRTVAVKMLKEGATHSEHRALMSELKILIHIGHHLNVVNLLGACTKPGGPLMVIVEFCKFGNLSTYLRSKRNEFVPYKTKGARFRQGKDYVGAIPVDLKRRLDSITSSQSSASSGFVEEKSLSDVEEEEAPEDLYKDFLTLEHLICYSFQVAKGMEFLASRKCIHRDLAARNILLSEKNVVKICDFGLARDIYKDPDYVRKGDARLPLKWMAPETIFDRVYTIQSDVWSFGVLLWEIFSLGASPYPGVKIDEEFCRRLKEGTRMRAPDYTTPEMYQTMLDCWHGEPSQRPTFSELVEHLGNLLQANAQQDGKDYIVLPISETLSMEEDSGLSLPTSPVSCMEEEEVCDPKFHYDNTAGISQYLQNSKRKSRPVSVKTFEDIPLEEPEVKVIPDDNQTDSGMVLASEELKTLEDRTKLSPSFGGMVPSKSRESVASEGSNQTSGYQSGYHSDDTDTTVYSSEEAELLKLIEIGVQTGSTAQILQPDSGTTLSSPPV
Experiment: Radioisotope filter binding assay
Settings: read-out: IC50 Activity Levels Against MAPK Pathway Kinases: KDR/VEGFR2
Description: 3. Radioisotope Filter Binding Assay: In this assay format, it directly detects the true product without the use of modified substrates or coupling enzymes (Uitdehaag, J. C., et al. Br. J. Pharmacol. 2012, 166, 858-876; Hastie, C. J., et al. Nat. Protoc. 2006, 1, 968-971) according to equation 1. Substrate+[γ−^33P]−ATP→^33P-Substrate+ADP eq 1 The protocol calls for test compound of the invention to be incubated with kinase, substrate, cofactors, and radio-isotope-labeled ATP (^33P-gamma-ATP). […]
IC50 by entry:
recorded-metric: IC50

compound	endpoint-result
Nc1ncnc2c1c(-c1ccc(Oc3ccccc3)cc1)nn2C[C@@H]1SSC[C@@H]1O [46 A.]	1 to 10 µM
Nc1ncnc2c1c(-c1ccc(Oc3ccccc3)cc1)nn2C[C@H]1SSC[C@H]1O [46 B.]	1 to 10 µM
